- assay-remarks: NCI Yeast Anticancer Drug Screen. Data for the bub3 strain (AID 167)
- assay-setup: S. cerevisiae bub3 mutant strain, at 50.0 µM
Compounds without any hit were thinned out: in the full panel of roughly 79,000, 15% have a hit. Calls of active or inactive are those of the source. Rule as the data show it: active = growth inhibition above about 70%; inactive = the rest.
Return exactly one item of YES (active), NO (inactive)

compound	answer-label
CCN(CC)C1C=CCCC1 (stereo not drawn)	NO
C[P+](CCl)(CCl)CCl	NO
CCCCOP(=O)(OCCCC)Oc1cccc([N+](=O)[O-])c1	NO
O=C([O-])C[OH+]c1ccc(Cl)cc1Cl.O=C([O-])C[OH+]c1ccc(Cl)cc1Cl.[Ni+2]	NO
O=[N+]([O-])c1cc([N+](=O)[O-])c(Cl)s1	YES
CC(C)(C[N+](=O)[O-])C[N+](=O)[O-]	NO
c1ccc2c(c1)oc1ccccc12	NO
CCC1CC[N-]CC1.CCC1CC[N-]CC1.[Cl][Pt+2][Cl]	NO
CCC(C)(C)OC(=O)CCl	NO
NC(=O)C(F)(F)Cl	NO

[in] Recorded test outcome, item SCc1c(Cl)c(Cl)c(Cl)c(Cl)c1Cl.[Hg]
[out] NO

[in] Proceed to CC(=O)Nc1ccccc1[As](OC(C)=O)c1ccccc1 (stereo not drawn)
[out] YES

[in] Proceed to CN1CCC2(CC1)c1ccccc1-c1ccccc12
[out] NO
